Entries and their TGI
# Tested on: DU-145 prostate
# method description: NCI tumour cell line growth inhibition, 48 h

structure string: CCc1ccc2[nH]c(O)c(C3=Nc4ccccc4C3=O)c2c1
measurement target: DU-145 prostate
TGI: > 100 µM
//
structure string: Nc1c(C(=O)c2cccc(C#CCN3CCCCC3)c2)cnn1-c1ccc(F)cc1
measurement target: DU-145 prostate
TGI: > 25 µM
//
structure string: O=C(c1ccc2ccccc2c1)c1nc2cc(F)ccc2[n+]([O-])c1C(F)(F)F
measurement target: DU-145 prostate
TGI: 45.8 µM
//
structure string: c1ccc2cc3c(NC4=NCCO4)cccc3cc2c1
measurement target: DU-145 prostate
TGI: > 100 µM

Reference for the values: PubChem BioAssay (NCI)
